# MEASUREMENT TARGET: Cdk2(C177A, F80C) (Homo sapiens, UniProt P24941, C177A/F80C)
# Construct: poly-histidine; made in house; host or cells: E. coli
# TEST DESCRIPTION: Kinetic thiol consumption assay with Cdk2 mutant F80C, incl. kobs versus concentration (Kd, k2)
# Type: binding
# CONDITIONS USED: Protein: Cdk2; cysteine position F80C; additional mutation C177A; in h^-1
METRIC NAME: Rate constant with Cdk2 F80C

[P] O=C(CCl)N1CCSc2ccccc21 [EN004]
[Q] C=CC(=O)N(C(=O)C=C)c1c2ccccc2n2c(C)nc3ccccc3c12 [CA-152]
[R] C=CC(=O)NCCc1c(-c2ccccn2)[nH]c2ccc(F)cc12 [EL-1084]
Query: Hi! Can you put these in order of Rate constant with Cdk2 F80C, lowest number first? Dear reader, please state the labels in the requested order.
Response: R, P, Q
(R: 7.515E−14, P: 0.006096, Q: 1.27)
